# target or system: T1, human NMI (N-myc Interacting protein) (human, UniProt Q13287 1-307, limits assumed)
# T1 construct: Immunogen and ELISA coating antigen; also called hNMI; antigen 1
# T1 sequence (looked up): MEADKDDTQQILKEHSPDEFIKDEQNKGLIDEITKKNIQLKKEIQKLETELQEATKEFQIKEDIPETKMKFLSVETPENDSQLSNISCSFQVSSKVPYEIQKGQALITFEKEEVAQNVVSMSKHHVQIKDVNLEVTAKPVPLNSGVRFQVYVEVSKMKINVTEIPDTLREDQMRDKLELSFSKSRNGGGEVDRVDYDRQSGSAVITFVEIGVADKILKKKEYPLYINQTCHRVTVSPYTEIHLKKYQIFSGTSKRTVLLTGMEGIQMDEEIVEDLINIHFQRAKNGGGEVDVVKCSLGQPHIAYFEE
# assay overview: I-ELISA, hNMI coated 1 ug/mL; antibody 2500 ng/mL
assay readout: OD450

Form field: reported OD450 of 39B4 (antibody, V domains shown, Rabbit monoclonal antibody; also called 39B4-1; 39B4-1-biotin (biotin-labelled form)) VH: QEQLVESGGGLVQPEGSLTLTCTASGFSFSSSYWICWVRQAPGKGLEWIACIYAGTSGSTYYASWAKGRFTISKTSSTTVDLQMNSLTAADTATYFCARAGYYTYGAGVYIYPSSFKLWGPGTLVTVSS VL: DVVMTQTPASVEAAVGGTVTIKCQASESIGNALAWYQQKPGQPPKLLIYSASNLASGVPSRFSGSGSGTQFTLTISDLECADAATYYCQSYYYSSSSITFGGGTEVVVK
2.25 OD450

Form field: reported OD450 of 98G10 (antibody, V domains shown, Rabbit monoclonal antibody; also called 98G10-1; 98G10-1-biotin (biotin-labelled form)) VH: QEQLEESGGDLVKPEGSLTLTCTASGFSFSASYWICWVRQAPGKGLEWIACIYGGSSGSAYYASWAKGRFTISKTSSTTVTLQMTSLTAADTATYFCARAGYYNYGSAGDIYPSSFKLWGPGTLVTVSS VL: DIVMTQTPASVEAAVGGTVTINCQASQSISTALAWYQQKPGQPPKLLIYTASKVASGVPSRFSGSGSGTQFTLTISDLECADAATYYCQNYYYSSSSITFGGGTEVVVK
2.17 OD450

Form field: reported OD450 of 94C4 (antibody, V domains shown, Rabbit monoclonal antibody; also called 94C4-1; 94C4-1-biotin (biotin-labelled form)) VH: QSLEESGGGLVQPEGSLTLTCKASGFDFSSNAMCWVRQAPGKGLEWIACISSASSGSSGSTYYASWAKGRFTISKTSSTTVTLQMTSLTAADMATYFCARDGYDLWGPGTLVTVSS VL: QVLTQTPSSVSAAVGGTVTISCQSSPSVYNNYLSWFQQKPGQSPKLLIYRVSTLASGVPSRFSGSGSGTQFTLTISGVQCDDAATYYCAGGYDSASDTYVFGGGTEVVVK
2.17 OD450

Form field: reported OD450 of 240B10-1 (antibody, V domains shown, Rabbit monoclonal antibody; also called 240B10-1-biotin (biotin-labelled form)) VH: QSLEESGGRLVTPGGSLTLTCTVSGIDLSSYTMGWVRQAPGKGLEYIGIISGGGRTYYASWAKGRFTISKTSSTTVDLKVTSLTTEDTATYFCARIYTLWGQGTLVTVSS VL: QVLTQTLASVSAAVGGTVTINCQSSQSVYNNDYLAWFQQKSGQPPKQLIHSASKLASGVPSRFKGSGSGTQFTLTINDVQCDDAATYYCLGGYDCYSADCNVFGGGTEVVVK
2.15 OD450
